Test target: glucosylceramide synthase (GCS) (Homo sapiens (Human))
Sequence (Q16739 whole entry, looked up): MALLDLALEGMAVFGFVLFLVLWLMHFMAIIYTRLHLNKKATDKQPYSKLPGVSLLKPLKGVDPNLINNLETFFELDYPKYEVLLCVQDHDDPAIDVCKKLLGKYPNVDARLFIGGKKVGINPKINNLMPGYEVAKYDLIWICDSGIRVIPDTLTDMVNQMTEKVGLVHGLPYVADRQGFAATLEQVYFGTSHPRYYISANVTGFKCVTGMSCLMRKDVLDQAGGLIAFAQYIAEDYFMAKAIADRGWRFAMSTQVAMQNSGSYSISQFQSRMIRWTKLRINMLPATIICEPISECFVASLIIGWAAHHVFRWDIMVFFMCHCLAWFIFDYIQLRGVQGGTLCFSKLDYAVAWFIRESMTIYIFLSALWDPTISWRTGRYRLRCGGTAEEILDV
Method notes: Evaluation of inhibitory activities against GCS (enzyme reaction with A549 cell lysate, NBD C6-ceramide, HPLC fluorescence)
Experimental conditions: GCS activity in A549 cell lysate, 37° C. for 90 minutes
// IC50 lookup, one value per entry

| Compound | Result units | IC50 |
| --- | --- | --- |
| COCOc1ccc(-c2ccc3c(c2)C(NC(=O)O[C@@H]2CN4CCC2CC4)C2(CC3)CC2)cc1 (some centres unmarked) | nM | 14.8 |
| CCOc1cccc(-c2ccc3c(c2)CCC2(CC2)C3NC(=O)O[C@@H]2CN3CCC2CC3)c1 (some centres unmarked) | nM | 19.8 |
| CC(C)Oc1ccc(-c2ccc3c(c2)CCC(C)(C)C3NC(=O)O[C@@H]2CN3CCC2CC3)cc1Cl (some centres unmarked) | nM | 3.5 |
| O=C(NC1CCCc2ccc(-c3ccc(F)c(F)c3F)cc21)O[C@@H]1CN2CCC1CC2 (some centres unmarked) | nM | 40.5 |
| Cc1ccc(-c2ccc3c(c2)CCCC3NC(=O)O[C@@H]2CN3CCC2CC3)cc1 (some centres unmarked) | nM | 8.8 |
| CC1(C)CCc2cc(-c3ccc(F)cc3F)ccc2C1NC(=O)O[C@@H]1CN2CCC1CC2 (some centres unmarked) | nM | 1.59 |
| CC1(C)CCc2cc(-c3ccc(Cl)cc3)ccc2C1NC(=O)O[C@@H]1CN2CCC1CC2 (some centres unmarked) | nM | 6 |
| CC1(C)CCc2cc(-c3cccc(C(F)F)c3)ccc2C1NC(=O)O[C@@H]1CN2CCC1CC2 (some centres unmarked) | nM | 1.24 |
